# assayedSystem: Matrilysin (Homo sapiens, UniProt P09237)
# Sequence (P09237 whole entry): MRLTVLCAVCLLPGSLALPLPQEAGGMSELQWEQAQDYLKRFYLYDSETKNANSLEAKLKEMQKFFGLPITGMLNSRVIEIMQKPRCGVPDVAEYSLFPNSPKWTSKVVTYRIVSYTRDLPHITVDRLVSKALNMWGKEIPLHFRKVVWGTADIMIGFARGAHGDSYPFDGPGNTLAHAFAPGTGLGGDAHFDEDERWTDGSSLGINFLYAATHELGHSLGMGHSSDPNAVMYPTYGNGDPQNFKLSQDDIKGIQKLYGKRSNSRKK
# experimentalProtocol: In vitro inhibitory activity against matrix metalloprotease-7 (matrilysin, MMP-7)
pIC50: −log10 of the molar value.
readoutKind: pIC50

                                smilesinput  valueprefix  datavalue
0  CCCOc1ccc(S(=O)(=O)N2C[C@@H](NC(=O)COC)C[C@@H]2C(=O)NO)cc1            <       5.00
1  CCCOc1ccc(S(=O)(=O)N2C[C@@H](NC(=O)[C@H](C)O)C[C@@H]2C(=O)NO)cc1            =       5.46
2  CCCCOc1ccc(S(=O)(=O)N2C[C@@H](N3C(=O)CN(C)C3=O)C[C@@H]2C(=O)NO)cc1            =       5.80
3  CCCN1CC(=O)N([C@H]2C[C@H](C(=O)NO)N(S(=O)(=O)c3ccc(OCCOC)cc3)C2)C1=O            =       4.96
4  CCCCCc1ccc(S(=O)(=O)N2C[C@@H](N3CCOCC3)C[C@@H]2C(=O)NO)cc1            =       5.13
5  COc1ccc(S(=O)(=O)N2C[C@@H](N3CCCS3(=O)=O)C[C@@H]2C(=O)NO)cc1            =       5.85
6  CCCCOc1ccc(S(=O)(=O)N2C[C@@H](N3CCOCC3)C[C@@H]2C(=O)NO)cc1            =       5.27
7  C=CCN1CC(=O)N([C@H]2C[C@H](C(=O)NO)N(S(=O)(=O)c3ccc(OCCOC)cc3)C2)C1=O            =       4.96

* * *

# experimentalProtocol: Oral bioavailability measured by the ratio of […] area under concentration.
# Type: ADME, organism-based
# testSettings: rat, in vivo
readoutKind: bioavailability (%)

In [3]: df
Out[3]:
                                smilesinput      readoutkind  endpointunit  datavalue
0  CCCCOc1ccc(S(=O)(=O)N2C[C@@H](N3CCOCC3)C[C@@H]2C(=O)NO)cc1  bioavailability             %          6

* * *

# assayedSystem: Collagenase 3 (Homo sapiens, UniProt P45452)
Parameter IC50: see the listing below.
readoutKind: IC50 (pM)

                                smilesinput  readoutkind  valueprefix  datavalue
0  CCCCOc1ccc(S(=O)(=O)N2C[C@@H](N3CCOCC3)C[C@@H]2C(=O)NO)cc1         IC50            =        600
1  CCCCOc1ccc(S(=O)(=O)N2C[C@@H](N3C(=O)NC(C)(C)C3=O)C[C@@H]2C(=O)NO)cc1         IC50            <        500
2  CCCCOc1ccc(S(=O)(=O)N2C[C@@H](N3CCS(=O)(=O)CC3)C[C@@H]2C(=O)NO)cc1         IC50            =        900
3  COCCOc1ccc(S(=O)(=O)N2C[C@@H](N3C(=O)CN(C)C3=O)C[C@@H]2C(=O)NO)cc1         IC50            =       4400
